- ASSAYED_SYSTEM: GABA-A receptor; anion channel
- METHOD_NOTES: Displacement of [3H]muscimol from rat brain gamma-aminobutyric-acid GABA-A receptor
MEASURED_PARAMETER: Ki (nM)

Below are worked cases with known answers.
Oc1noc(C2CCNCC2)c1-c1ccc2ccccc2c1 = 36
O=c1[nH]oc(C2CCNCC2)c1-c1cccc2ccccc12 = 820
Oc1noc(C2CCNCC2)c1Cc1ccc2ccc(Br)cc2c1 = 109
Oc1noc(C2CCNCC2)c1Cc1ccc2ccccc2c1F = 19
Oc1noc(C2CCNCC2)c1Cc1ccc2ccccc2c1-c1ccccc1 = 21

1 = N#Cc1c(Cc2c(O)noc2C2CCNCC2)ccc2ccccc12
2 = Oc1noc(C2CCNCC2)c1Cc1ccc2cccc(Br)c2c1
Q. Could you tell me which of 1 and 2 has the lower Ki reading? Give the label under which the chosen entry appears.
A. 1

a = CSc1c(Cc2c(O)noc2C2CCNCC2)ccc2ccccc12
b = Oc1noc(C2CCNCC2)c1Cc1ccc2c(Br)cccc2c1
c = Oc1noc(C2CCNCC2)c1-c1ccccc1
d = Oc1noc(C2CCNCC2)c1Cc1ccc2ccccc2c1Cl
e = Oc1noc(C2CCNCC2)c1Cc1ccc2ccccc2c1Br
Q. Order by Ki, ascending. Answer by naming the labels in the order asked.
A. e, d, a, b, c
